The reported numbers originate from patent KR20230039786A.

assay_target: SARS-CoV NP antigen (Sino Biological) (SARS-CoV, UniProt P59595 1-422)
Sequence (P59595 whole entry): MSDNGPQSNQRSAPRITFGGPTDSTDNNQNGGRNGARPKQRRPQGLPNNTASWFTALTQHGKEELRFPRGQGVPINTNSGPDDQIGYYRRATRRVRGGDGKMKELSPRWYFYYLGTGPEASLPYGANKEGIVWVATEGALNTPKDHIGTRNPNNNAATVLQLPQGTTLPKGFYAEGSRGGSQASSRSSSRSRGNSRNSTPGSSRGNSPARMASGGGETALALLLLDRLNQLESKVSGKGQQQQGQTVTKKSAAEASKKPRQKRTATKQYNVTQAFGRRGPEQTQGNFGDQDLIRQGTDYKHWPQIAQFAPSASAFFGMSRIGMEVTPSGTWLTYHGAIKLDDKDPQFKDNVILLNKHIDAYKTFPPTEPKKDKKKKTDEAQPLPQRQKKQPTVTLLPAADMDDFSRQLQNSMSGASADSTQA
method: indirect ELISA, SARS-CoV NP coated, anti-mouse IgG-HRP

| binder | units_symbol | EC50 |
| --- | --- | --- |
| 5B6.8 anti-NP monoclonal antibody (antibody, V domains shown) VH: QVQLQESGPELVRPGVSVKISCKGSGYTFTDYAMHWVKQSHAKSLEWIGVISTYSGNTSYNQKFKGKATMTVDKSSSTAYMELARLTAEDSAIYYCANGGNYGFDYWGQGTTLTVSS VL: DIVITQSPKFMSTSVGDRVSITCEASQDVTTAVAWYQQKPGQSPKLLIYSASYRFTGVPDRFTGSGSGTDFTFTISSVQAEDLAVYYCQQHYSSPLTFGAGTKLELK | ng/mL | 1320 |
| 5B6 anti-NP monoclonal antibody (antibody, V domains shown) VH: QVQLQESGPELKKPGETVKISCTASGYTFANYGMNWVKQAPGKGLKWMGWINTYTGETTYADDFKGRFAFSLETSASTASLQINKLKNEDTATYFCTRSVLLRSYFDYGGQGTTLTVSS VL: DIVMTQSPKFMSTSVGDRVSITCEASQDVTTAVAWYQQKPGQSPKLLIYSASYRFAGVPDRFTGSGSGTDFTFTISSVQAEDLAVYYCQQHYSSPLTFGAGTKLELK | ng/mL | 4 |
| 3F10 anti-NP monoclonal antibody (antibody, V domains shown) VH: EVQLEESGPELKKPGETVKISCKASGYTFTDYSMHWVKQAPGKGLKWMGWINTETGEPTYADDFKGRFAFSLETSASTASLQINNLKNEDTATYFCGSGSRYSWYFDVWGAGTTVTVSS VL: DIVLTQSPKFMSTSLGDRVSVTCKASQSVGTNVAWFQQNSGQSPKALIYSASYRYSGVPDRFTGSGSGTDFTLTISNVKSEDLAEYFCQQYNSYPLAFGGGTKVEIK | ng/mL | 10 |
| 3E10 anti-NP monoclonal antibody (antibody, V domains shown) VH: EVQLEQSGPELVRPGVSVKISCKGSGYTFTDYAMHWVKQSHAKSLEWIGVISTYSGNTSYNQKFKGKATMTVDKSSSTAYMELARLTAEDSAIYYCANGGNYGFDYWGQGTTLTVSS VL: DIVLTQSPKFMSTSVGDRVSITCKASQDVGTAVAWYQQKPGQSPRLLIYWTSTRHTGVPDRFTGSGSGTDFTLTISNVQSEDLADYFCQQYSSYPLTFGGGTKLEIK | ng/mL | 2 |
